Target: angiotensin-converting enzyme (ACE) (Homo sapiens, UniProt P12821)
Construct: purchased Sigma-Aldrich CS0002
Sequence (P12821 30-1306, species assumed): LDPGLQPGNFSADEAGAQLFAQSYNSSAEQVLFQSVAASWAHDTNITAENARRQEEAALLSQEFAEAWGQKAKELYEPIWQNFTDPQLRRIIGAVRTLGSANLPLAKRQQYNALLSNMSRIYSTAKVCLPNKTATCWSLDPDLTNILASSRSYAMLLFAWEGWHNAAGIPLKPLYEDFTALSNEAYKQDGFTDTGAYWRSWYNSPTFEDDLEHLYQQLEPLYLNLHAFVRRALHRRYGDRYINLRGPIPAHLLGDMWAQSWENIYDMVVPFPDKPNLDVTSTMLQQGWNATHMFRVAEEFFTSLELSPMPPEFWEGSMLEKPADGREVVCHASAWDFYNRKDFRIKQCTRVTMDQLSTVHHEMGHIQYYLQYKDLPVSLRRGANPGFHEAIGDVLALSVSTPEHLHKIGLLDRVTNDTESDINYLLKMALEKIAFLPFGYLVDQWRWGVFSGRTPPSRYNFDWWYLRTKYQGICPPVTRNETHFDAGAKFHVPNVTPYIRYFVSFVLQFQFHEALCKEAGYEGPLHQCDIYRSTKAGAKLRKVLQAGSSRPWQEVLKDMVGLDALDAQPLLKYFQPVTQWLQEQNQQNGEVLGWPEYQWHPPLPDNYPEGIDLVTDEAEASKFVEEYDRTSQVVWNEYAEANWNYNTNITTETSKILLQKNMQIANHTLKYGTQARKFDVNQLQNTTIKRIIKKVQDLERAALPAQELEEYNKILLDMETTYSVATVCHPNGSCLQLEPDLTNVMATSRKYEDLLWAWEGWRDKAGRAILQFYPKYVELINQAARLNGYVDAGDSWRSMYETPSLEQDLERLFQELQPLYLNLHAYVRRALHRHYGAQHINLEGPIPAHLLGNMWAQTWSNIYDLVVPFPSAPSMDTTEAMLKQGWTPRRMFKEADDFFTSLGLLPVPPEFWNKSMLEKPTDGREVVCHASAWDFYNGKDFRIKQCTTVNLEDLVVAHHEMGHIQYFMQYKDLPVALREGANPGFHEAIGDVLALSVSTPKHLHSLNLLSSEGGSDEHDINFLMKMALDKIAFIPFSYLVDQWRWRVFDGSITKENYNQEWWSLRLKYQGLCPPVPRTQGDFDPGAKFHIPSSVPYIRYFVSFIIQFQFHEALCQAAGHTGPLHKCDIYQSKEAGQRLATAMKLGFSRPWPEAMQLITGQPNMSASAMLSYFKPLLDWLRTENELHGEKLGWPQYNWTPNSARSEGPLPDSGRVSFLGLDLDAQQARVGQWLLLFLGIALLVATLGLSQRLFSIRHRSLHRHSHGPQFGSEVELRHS
Experiment: ACE inhibition assay (ACE Activity Assay kit, fluorogenic substrate)
Format: biochemical
Conditions: fluorogenic substrate, 37 °C, fluorescence (ex 320/em 405 nm) every minute for 5 min, five concentrations; value ± SD, n = 2; read-out: IC50 for ACE inhibition
No end group written: not given here.
Measure name: IC50 (µM)

Substance	Reported result
AYLQAQQLLPFNQLVRSPAA-NH2 [19ZP3]	202
FNQLAALNSAAYLQQQQLLPFSQLA-NH2 [19ZP1]	14.2
QLADVSPAAFLTQQQLLPFYLHAM-NH2 [19ZP2]	174
